# TARGET_OF_ASSAY: TMEM16A (ANO1) (Mus musculus, UniProt Q8BHY3)
# Construct: We subcloned the coding region of the cDNA into pEGFP-N3 vector; expressed in transfected cells; host or cells: HEK293 cells
# Sequence (Q8BHY3 1-956 isoform Q8BHY3-2): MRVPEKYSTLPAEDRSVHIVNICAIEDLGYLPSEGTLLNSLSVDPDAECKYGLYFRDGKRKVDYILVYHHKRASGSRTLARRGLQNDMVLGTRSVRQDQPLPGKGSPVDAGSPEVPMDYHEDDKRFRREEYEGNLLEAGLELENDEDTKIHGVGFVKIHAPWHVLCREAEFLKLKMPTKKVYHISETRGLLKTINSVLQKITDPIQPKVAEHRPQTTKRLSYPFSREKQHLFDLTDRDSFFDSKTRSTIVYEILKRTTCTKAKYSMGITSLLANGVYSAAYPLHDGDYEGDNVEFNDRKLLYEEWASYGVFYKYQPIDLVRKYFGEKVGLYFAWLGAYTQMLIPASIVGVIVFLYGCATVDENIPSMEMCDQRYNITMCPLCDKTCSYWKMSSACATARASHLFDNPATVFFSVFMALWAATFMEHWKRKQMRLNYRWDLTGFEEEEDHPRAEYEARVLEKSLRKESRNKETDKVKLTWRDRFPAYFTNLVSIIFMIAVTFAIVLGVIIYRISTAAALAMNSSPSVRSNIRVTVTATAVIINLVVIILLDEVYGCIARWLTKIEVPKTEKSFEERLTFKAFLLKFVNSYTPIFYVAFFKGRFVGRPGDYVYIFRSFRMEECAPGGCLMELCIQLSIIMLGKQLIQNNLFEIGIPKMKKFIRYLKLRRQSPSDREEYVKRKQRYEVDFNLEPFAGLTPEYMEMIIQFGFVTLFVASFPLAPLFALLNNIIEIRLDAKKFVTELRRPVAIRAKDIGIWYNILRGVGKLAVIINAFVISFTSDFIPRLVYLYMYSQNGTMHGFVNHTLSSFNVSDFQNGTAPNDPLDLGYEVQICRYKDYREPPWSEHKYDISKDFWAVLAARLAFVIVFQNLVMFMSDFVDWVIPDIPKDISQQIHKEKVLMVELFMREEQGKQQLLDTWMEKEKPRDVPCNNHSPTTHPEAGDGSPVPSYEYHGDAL
# ASSAY_REMARKS: NFA inhibition of ANO1 current, intracellular application to inside-out patch
# Format: cell-based
# CONDITION_CONTEXT: 140 mM intracellular NaSCN; pipette 140 mM Cl^−; read-out: K1/2 of NFA inhibition
ASSAY_READOUT: IC50 (µM)
Unit µM implied. Number only.

Field IC50 (entry O=C(O)c1cccnc1Nc1cccc(C(F)(F)F)c1 [NFA, niflumic acid] ) reads 189

###

# TARGET_OF_ASSAY: TMEM16A (ANO1) (Mus musculus, UniProt Q8BHY3)
# Construct: We subcloned the coding region of the cDNA into pEGFP-N3 vector; expressed in transfected cells; host or cells: HEK293 cells
# ASSAY_REMARKS: Anion permeability of the ANO1 pore, Erev under bi-ionic conditions
# Assay type: cell-based
# CONDITION_CONTEXT: example ramp −80 to +80 mV; [Ca^2+] = 20 µM; 140 mM extracellular NaCl; intracellular salt 140 mM (NaHCO3 130 mM + 10 mM NaCl)
ASSAY_READOUT: zero current potential of I–V curve

compound="[I-].[Na+] [I^−]" target_of_assay="TMEM16A (ANO1) (Mus musculus, UniProt Q8BHY3)" result="+39 mV"
compound="O=C([O-])O.[Na+] [HCO3 ^−]" target_of_assay="TMEM16A (ANO1) (Mus musculus, UniProt Q8BHY3)" result="-27 mV"
compound="N#C[S-].[Na+] [SCN^−]" target_of_assay="TMEM16A (ANO1) (Mus musculus, UniProt Q8BHY3)" result="+64 mV"
compound="[Br-].[Na+] [Br^−]" target_of_assay="TMEM16A (ANO1) (Mus musculus, UniProt Q8BHY3)" result="+17 mV"

Now let's try a different one.
// zero current potential of I–V curve lookup, compound = O=[N+]([O-])[O-].[Na+] [NO3 ^−] , result: +33 mV

###

# TARGET_OF_ASSAY: TMEM16A (ANO1) (Mus musculus, UniProt Q8BHY3)
# Construct: We subcloned the coding region of the cDNA into pEGFP-N3 vector; expressed in transfected cells; host or cells: HEK293 cells
# Sequence (Q8BHY3 1-956 isoform Q8BHY3-2): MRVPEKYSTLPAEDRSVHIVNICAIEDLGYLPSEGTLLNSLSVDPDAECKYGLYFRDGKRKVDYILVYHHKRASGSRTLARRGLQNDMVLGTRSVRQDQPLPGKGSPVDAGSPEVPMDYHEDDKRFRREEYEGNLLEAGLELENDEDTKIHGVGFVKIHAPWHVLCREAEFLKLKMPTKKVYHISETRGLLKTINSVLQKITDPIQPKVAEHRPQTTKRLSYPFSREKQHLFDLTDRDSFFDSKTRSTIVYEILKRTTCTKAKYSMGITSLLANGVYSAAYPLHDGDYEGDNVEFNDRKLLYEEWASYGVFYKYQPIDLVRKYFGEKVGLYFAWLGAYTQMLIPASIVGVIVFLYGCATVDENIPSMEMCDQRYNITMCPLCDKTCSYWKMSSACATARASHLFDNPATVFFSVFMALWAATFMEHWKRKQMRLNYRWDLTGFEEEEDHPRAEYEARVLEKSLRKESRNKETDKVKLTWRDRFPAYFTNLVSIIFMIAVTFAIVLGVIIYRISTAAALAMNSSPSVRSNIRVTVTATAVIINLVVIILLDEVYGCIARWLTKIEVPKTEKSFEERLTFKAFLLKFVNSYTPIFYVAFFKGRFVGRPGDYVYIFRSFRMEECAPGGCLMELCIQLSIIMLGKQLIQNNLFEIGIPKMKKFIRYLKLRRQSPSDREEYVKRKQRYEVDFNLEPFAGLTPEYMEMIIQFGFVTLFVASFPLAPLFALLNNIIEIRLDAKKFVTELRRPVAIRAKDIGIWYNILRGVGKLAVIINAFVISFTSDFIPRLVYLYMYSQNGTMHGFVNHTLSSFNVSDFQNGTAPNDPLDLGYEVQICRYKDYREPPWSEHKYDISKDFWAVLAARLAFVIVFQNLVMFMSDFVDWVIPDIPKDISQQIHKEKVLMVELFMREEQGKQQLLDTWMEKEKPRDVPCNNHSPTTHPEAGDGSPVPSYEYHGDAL
# ASSAY_REMARKS: NFA inhibition of ANO1 current, intracellular application to inside-out patch
# Type: cell-based
# CONDITION_CONTEXT: symmetrical 140 mM NaCl; −40 mV; read-out: K1/2 of NFA inhibition
ASSAY_READOUT: pIC50
The read-out pIC50 is expressed as -log10 of concentration in moles per litre.

The value of pIC50 measured for the compound O=C(O)c1cccnc1Nc1cccc(C(F)(F)F)c1 turned out to be 4.74

###

# TARGET_OF_ASSAY: TMEM16A (ANO1) (Mus musculus, UniProt Q8BHY3)
# Construct: We subcloned the coding region of the cDNA into pEGFP-N3 vector; expressed in transfected cells; host or cells: HEK293 cells
# Sequence (Q8BHY3 1-956 isoform Q8BHY3-2): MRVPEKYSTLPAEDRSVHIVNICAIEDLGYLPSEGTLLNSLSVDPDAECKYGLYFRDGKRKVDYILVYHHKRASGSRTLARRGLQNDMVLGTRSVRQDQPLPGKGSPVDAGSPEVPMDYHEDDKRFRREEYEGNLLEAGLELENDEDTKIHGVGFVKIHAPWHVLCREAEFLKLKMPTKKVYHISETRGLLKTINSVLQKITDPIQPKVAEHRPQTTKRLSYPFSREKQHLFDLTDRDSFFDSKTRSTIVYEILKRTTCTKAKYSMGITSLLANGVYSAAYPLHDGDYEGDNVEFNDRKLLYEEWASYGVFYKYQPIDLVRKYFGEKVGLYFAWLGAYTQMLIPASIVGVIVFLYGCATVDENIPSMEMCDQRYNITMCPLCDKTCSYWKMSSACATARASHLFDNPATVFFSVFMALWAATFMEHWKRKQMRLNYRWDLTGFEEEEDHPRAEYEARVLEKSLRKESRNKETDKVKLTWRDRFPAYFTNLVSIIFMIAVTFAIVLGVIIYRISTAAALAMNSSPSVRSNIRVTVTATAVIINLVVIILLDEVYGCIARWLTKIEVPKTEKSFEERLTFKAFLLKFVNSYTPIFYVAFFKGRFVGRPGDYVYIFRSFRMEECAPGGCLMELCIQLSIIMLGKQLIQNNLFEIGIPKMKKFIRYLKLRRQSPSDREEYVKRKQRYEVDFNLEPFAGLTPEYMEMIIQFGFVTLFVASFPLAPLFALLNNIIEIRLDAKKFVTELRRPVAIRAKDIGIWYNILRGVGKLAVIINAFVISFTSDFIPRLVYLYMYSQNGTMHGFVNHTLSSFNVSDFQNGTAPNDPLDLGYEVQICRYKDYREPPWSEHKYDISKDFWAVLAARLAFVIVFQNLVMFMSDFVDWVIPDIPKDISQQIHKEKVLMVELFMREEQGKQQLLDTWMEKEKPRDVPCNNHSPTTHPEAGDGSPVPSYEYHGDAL
# ASSAY_REMARKS: NFA inhibition of ANO1 current, intracellular application to inside-out patch
# Assay type: cell-based
# CONDITION_CONTEXT: 140 mM intracellular NaI; pipette 140 mM Cl^−; read-out: K1/2 of NFA inhibition
ASSAY_READOUT: IC50 (µM)
Give the number; µM is assumed, so skip it.

Here O=C(O)c1cccnc1Nc1cccc(C(F)(F)F)c1 [NFA, niflumic acid] was tested on TMEM16A (ANO1) (Mus musculus, UniProt Q8BHY3), and its IC50 came to 85.5
